Molecular target: furin, P09958;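 further: purified furin at 1:10 enzyme:substrate in 50 mM HEPES pH 7.5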
Sequence (P09958 whole entry): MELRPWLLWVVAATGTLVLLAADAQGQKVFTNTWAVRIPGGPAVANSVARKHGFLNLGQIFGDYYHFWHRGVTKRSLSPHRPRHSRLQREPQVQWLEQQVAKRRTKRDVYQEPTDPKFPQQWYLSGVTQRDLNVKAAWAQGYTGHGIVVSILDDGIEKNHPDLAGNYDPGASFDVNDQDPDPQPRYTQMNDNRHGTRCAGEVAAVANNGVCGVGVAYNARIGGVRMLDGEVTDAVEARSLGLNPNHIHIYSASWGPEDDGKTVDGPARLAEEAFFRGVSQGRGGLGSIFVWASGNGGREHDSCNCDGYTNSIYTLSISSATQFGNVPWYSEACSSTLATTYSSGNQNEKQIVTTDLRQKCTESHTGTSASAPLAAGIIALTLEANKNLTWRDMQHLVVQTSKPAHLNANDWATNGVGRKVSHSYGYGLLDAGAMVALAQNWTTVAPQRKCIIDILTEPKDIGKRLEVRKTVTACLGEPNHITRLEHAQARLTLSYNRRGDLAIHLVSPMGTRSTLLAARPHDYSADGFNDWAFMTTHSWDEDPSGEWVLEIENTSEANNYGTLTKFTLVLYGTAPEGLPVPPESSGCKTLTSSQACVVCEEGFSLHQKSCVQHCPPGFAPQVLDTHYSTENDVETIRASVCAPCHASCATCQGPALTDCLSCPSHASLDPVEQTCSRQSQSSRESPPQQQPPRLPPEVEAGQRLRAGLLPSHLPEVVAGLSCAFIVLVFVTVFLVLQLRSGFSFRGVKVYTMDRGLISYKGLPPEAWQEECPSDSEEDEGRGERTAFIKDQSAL
Experiment: furin cleavage Z-score vs untreated control; higher = more cleavage, active = 3.5 or more, inactive = 1 or less, 8 variable residues between constant flanks
Details: 7.5 min
The other results are listed elsewhere or left out. The hit rate among all sequences tested is not known here.
endpoint: furin cleavage Z-score
Just the number, please, no unit attached.

## Input Form field: reported furin cleavage Z-score of CASDPCSAHLAGNASASA [HC2491]
## Output -0.0824

## Input Form field: reported furin cleavage Z-score of CATEPCSGSWAGNASASA [HC1852]
## Output -0.934

## Input Form field: reported furin cleavage Z-score of CAWFGCTWMNAGNASASA [HC435]
## Output -0.725

## Input Form field: reported furin cleavage Z-score of CATINYTIFKAGNASASA [HC471]
## Output -0.464

## Input Form field: reported furin cleavage Z-score of CASLMAFTAAAGNASASA [HC1055]
## Output -0.632

## Input Form field: reported furin cleavage Z-score of CARSFRRIAGAGNASASA [FS-2804]
## Output -0.414

## Input Form field: reported furin cleavage Z-score of CARVKRTHVPAGNASASA [FS-2242]
## Output 4.22
